Reported Endpoint: melting point

Check out these entries, answers already filled in.
INSERT INTO assay_data (compound, reported_endpoint, reported_result) VALUES
  ('CS(=O)(=O)c1ccc(-c2cnn(CC(=O)c3csc4ccccc34)c(=O)c2-c2ccc(F)cc2)cc1', 'melting point', '183 to 184 °C'),
  ('c1ccc2c(-c3nc(NC4CCCCC4)c4ccccc4n3)nccc2c1', 'melting point', '275 to 277 °C'),
  ('C=CCOc1ccc(Nc2nccc(-c3cccnc3)n2)cc1', 'melting point', '105 to 108 °C'),
  ('Cn1c(Nc2c(Cl)cccc2Cl)nc2cc(C(=O)NC3CCC(C)(C)CC3)ccc21', 'melting point', '189 to 190 °C'),
  ('Cc1ccc2sc3cc(C(=O)O)ccc3c2c1', 'melting point', '290 to 291 °C');

Data request: Looking for the measured melting point of COC(=O)c1ccc(Cn2ncc3ccc(NC(=O)OC4CCCC4)cc32)c(OC)c1 , can you help?
Data returned: 150 to 151 °C

Data request: Looking for the measured melting point of COc1ccc(-c2c(Cl)c(CN3C(=O)CCC3=O)nc3sc4c(c23)CCC(=O)C4(C)C)cc1 , can you help?
Data returned: 245 to 246 °C

Data request: Looking for the measured melting point of CCOC(=O)C=Cc1cc(-c2ccc3c(c2)C(C)(C)CCC3(C)C)cs1 , can you help?
Data returned: 82 to 84 °C

Data request: Looking for the measured melting point of CCC12CCC3C4CCC(=O)C=C4CCC3C1CCC2OC(=O)c1ccccc1 (stereo not given) , can you help?
Data returned: 141 to 149 °C

Data request: Looking for the measured melting point of COc1cc(-c2ccc(C(F)(F)F)cc2)nc(SC)n1 , can you help?
Data returned: 82 to 84 °C

---

Measured melting point accompanies every entry in the list below.

INSERT INTO results (record_smiles, reported_result) VALUES
  ('N=C(Cc1nc2cnc3ccc(Cl)cc3c2n1-c1ccccc1Cl)NO', '114 °C'),
  ('O=C(NCCCCCCC(=O)c1ncco1)c1cc2ccccc2[nH]1', '153 to 156 °C');

Data request: Looking for the measured melting point of CC(=O)c1ccc(OCCCC(=O)O)cc1F , can you help?
Data returned: 110 to 111 °C

---

Measured melting point accompanies every entry in the list below.

Check out these entries, answers already filled in.
INSERT INTO measurements (compound, reported_result) VALUES
  ('COC[C@H]1CN(c2coc3cc(C(=O)OC)ccc23)C(=O)O1', '116 °C'),
  ('CCCCc1[nH]c(Cc2ccccc2)nc(=O)c1Cc1ccc(-c2ccccc2C(=O)O)cc1', '219 °C'),
  ('COc1cc2[nH]cc(C(=O)NN3CCNC3=O)c(=O)c2cc1OC', '> 300 °C'),
  ('O=C(Nc1ccc(Oc2ccnc(N3CCC(O)CC3)n2)c2ccccc12)c1cc(F)cc(N2CCOCC2)c1', '106 to 108 °C'),
  ('O=C(O)CCCc1cc2nc(Cl)ccc2n1S(=O)(=O)c1ccc2c(c1)OC(F)(F)O2', '216 °C'),
  ('O=C1NC(CCO)CO1 (stereo not drawn)', '90 to 91 °C'),
  ('O=C(NCCO)c1cnc(C(=O)NCCO)s1', '182 to 184 °C'),
  ('COc1ccc(CN2CC(COC(c3ccccc3)(c3ccccc3)c3ccccc3)CC2=O)cc1 (stereo not drawn)', '171 to 173 °C');

Data request: Looking for the measured melting point of CCCN(c1c([O-])[c+](N(CCC)C2CC(C)(C)NC(C)(C)C2)[c+]1[O-])C1CC(C)(C)NC(C)(C)C1 , can you help?
Data returned: 198 to 199 °C

Data request: Looking for the measured melting point of CC(C)n1nc(-c2c(-c3ccccc3)nn3ccc(OCC(=O)NCCN(C)C)cc23)ccc1=O , can you help?
Data returned: 117 to 119 °C

Data request: Looking for the measured melting point of COc1cc2c(c3c1OC(C)(C)C3)C(c1ccc(=O)n(-c3cc(C)ccn3)c1)=NC(C)(C)C2 , can you help?
Data returned: 161 to 162 °C

Data request: Looking for the measured melting point of C=C(c1ccc(N(C)C)cc1)c1ccc(N2CCCC2)cc1 , can you help?
Data returned: 149 to 150 °C

Data request: Looking for the measured melting point of CC1(C)CC1C(=O)NC(=CCCCCCBr)C(=O)O (stereo not drawn) , can you help?
Data returned: 151 to 153 °C
